- System: T1, human VPAC2 receptor (human, UniProt P41587 24-438)
- T1 sequence (looked up): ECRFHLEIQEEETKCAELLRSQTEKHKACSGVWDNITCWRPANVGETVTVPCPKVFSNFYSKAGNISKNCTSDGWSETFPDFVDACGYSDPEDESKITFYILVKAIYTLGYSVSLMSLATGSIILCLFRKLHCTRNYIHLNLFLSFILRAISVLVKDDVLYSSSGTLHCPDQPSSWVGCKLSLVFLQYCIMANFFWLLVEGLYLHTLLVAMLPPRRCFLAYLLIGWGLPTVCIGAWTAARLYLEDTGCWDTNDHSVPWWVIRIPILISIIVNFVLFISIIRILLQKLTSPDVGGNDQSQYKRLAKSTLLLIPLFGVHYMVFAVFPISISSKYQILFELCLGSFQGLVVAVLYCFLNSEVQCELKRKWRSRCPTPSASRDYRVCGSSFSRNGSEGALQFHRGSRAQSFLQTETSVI
- Test description: cell-based or functional assay
Where no end group is shown, it is not given here. [ ]: non-standard residue; d: D form. The star is where a group is joined. Hexanoyl = CCCCCC(=O)*; Aib = CC(C)(N)C(=O)O
Measured property: EC50 cAMP, Alpha Screen (nM)
Numbers only, in nM.

# batch: return EC50 cAMP, Alpha Screen for each of the 3 binders below
1. Hexanoyl-HSDAVFTDNYTRLR[Aib]QVAAK[Aib]YLQSIKQKGGPSSGAPPPS (ends and bridges not checked) [P295]
2. Hexanoyl-HSDAVFTDNYTRL[Aib]KQVAA[Aib]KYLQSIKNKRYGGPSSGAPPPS (ends and bridges not checked) [P242]
3. Hexanoyl-HSDAVFTDNYTRLR[Aib]QVAA[Aib]AYLQSIKNKRYGGPSSGAPPPS (ends and bridges not checked) [P341]

Outgoing:
0.39
0.8
0.38

meta.source: patent US20080026996A1
